The following sequences are listed with their measured pre-steady-state target cleavage rate values.
# System: MIWI (PIWIL1) piRISC loaded with piRNA #1 (30 nt);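 also: 1 nM active piRISC with 0.1 nM target library at 33 °C single turnover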
# Test method notes: pre-steady-state target cleavage rate (min^-1); MIWI and MILI are mouse PIWI proteins and EfPiwi is from a freshwater sponge; tags in brackets are library labels; higher = faster piRNA-guided slicing of the target;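 also: 1 nM active piRISC with 0.1 nM target library at 33 °C single turnover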
# Conditions used: guide: piRNA #1 5'p-UGAGGUAGUAGGUUGUAUAGUAUCCAGAGG; auxiliary factor: 500 nM mouse GTSF1
Over roughly 6,200 sequences, “pre-steady-state target cleavage rate” has its median near 0.29; the highest 2% begin near 2. Only a selection was taken, and the highest values are over-represented in it overall.

Incoming: Need pre-steady-state target cleavage rate of `GCUCUGGAUACUAUACAACCUACAUGCUCA` , thanks.
Outgoing: 0.589

Incoming: Need pre-steady-state target cleavage rate of `GGACUCGAUACAAUACAACCUACUACCUCA` , thanks.
Outgoing: 1.46

Incoming: Need pre-steady-state target cleavage rate of `GGAGAGAGAUACUAUACAACCUACUACCUCA` , thanks.
Outgoing: 2.02

Incoming: Need pre-steady-state target cleavage rate of `GGAGACCUUAGUAUACUACCUACUACCUCA` , thanks.
Outgoing: 0.0222

Incoming: Need pre-steady-state target cleavage rate of `CCUCUGGAUACUAUUCAACCUACUAGCUCA` , thanks.
Outgoing: 1.37

Incoming: Need pre-steady-state target cleavage rate of `GGAGUGGUUACUAUACAACCUAGUACCUCA` , thanks.
Outgoing: 0.371
